Target: human OX2R (Homo sapiens, UniProt O43614)
Sequence (O43614 1-444): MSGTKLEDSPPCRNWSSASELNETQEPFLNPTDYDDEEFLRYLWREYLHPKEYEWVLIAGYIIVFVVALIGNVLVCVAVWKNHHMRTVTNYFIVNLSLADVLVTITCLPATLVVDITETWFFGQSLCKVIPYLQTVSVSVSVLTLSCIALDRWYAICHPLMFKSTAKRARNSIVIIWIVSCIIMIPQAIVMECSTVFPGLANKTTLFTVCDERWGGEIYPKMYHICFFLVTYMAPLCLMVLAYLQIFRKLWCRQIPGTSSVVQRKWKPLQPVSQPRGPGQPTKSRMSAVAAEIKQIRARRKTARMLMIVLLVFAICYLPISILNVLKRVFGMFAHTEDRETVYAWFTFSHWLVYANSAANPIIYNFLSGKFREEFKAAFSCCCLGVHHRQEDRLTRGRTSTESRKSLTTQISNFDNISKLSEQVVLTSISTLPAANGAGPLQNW
Assay: IPOne (IP-One) orexin receptor agonist assay in CHO cells expressing human OX2R
Conditions: CHO cells expressing human OX2R; IP-One detection; 2 hours incubation; four parameter logistic fit; read-out: OX2R Potency, EC50
pEC50: −log10 of the molar value.
The reader will find reported pEC50 values listed item by item below.
ATTRIBUTE MEASURED: pEC50

In [3]: df
Out[3]:
                                   compound  attribute_measured  value_reported
0  C[C@@H]1C[C@H](NS(=O)(=O)N(C)C)[C@H](CO[C@H]2CC[C@@H](c3cccc(F)c3)CC2)N1c1cc(O)c(Cl)cn1               pEC50            9.64
1  Cc1ncc(N2CC[C@H](NS(C)(=O)=O)[C@@H]2CO[C@H]2CC[C@@H](c3ccccc3)CC2)n1C               pEC50            7.43
2  Cc1nccc(N2CC[C@H](NS(C)(=O)=O)[C@@H]2CO[C@H]2CC[C@@H](c3ccccc3)CC2)n1               pEC50            5.17
3  Cn1cc(N2CC[C@H](NS(C)(=O)=O)[C@@H]2CO[C@H]2CC[C@@H](c3ccccc3)CC2)nn1 (relative stereo)               pEC50            6.82

====

molecular target: human OX2R (Homo sapiens); construct: expressed in transfected cells; host or cells: Chinese hamster ovary (CHO) cells, kept under G418 selection; assay: IPOne (IP-One) orexin receptor agonist assay in CHO cells expressing human OX2R; format: cell-based; details: human OX2R; percentage of sample raw value/mean max effect (reference compound at 1 uM with 100% activity)
ATTRIBUTE MEASURED: % max agonist effect (Emax) (%)

>>> print(df.to_string())
                         structure_notation           attribute_measured  value_reported
0  CS(=O)(=O)N[C@H]1CCN(c2cncs2)[C@H]1CO[C@H]1CC[C@@H](c2ccccc2)CC1  % max agonist effect (Emax)            99.0
1  CS(=O)(=O)N[C@H]1CCN(c2ccc(C#N)cn2)[C@H]1CO[C@H]1CC[C@@H](c2ccccc2)CC1  % max agonist effect (Emax)            75.3
2  Cc1sc(N2CC[C@H](NS(C)(=O)=O)[C@@H]2CO[C@H]2CC[C@@H](c3ccccc3)CC2)nc1Br  % max agonist effect (Emax)            98.0
3  CS(=O)(=O)N[C@H]1CCN(c2nccc(O)c2Cl)[C@H]1CO[C@H]1CC[C@@H](c2ccccc2)CC1  % max agonist effect (Emax)           100.5

====

biological target: human OX2R (Homo sapiens, UniProt O43614); assay: IPOne (IP-One) orexin receptor agonist assay in CHO cells expressing human OX2R; conditions: CHO cells expressing human OX2R; IP-One detection; 2 hours incubation; four parameter logistic fit; read-out: OX2R Potency, EC50
pEC50: −log10 of the molar value.
The reader will find reported pEC50 values listed item by item below.
ATTRIBUTE MEASURED: pEC50

>>> df
                                   molecule  value_reported
0  COc1cncc(N2CC[C@H](NS(C)(=O)=O)[C@@H]2CO[C@H]2CC[C@@H](c3ccccc3)CC2)c1            7.33
1  COC(=O)c1csc(N2CC[C@H](NS(C)(=O)=O)[C@@H]2CO[C@H]2CC[C@@H](c3ccccc3)CC2)n1            5.92
2  CS(=O)(=O)N[C@H]1CCN(c2cncc3ccccc23)[C@H]1CO[C@H]1CC[C@@H](c2ccccc2)CC1 (relative stereo)            5.97
3  Cc1cnc(N2CC[C@H](NS(C)(=O)=O)[C@@H]2CO[C@H]2CC[C@@H](c3ccccc3)CC2)n1C            6.44

====

biological target: human OX2R (Homo sapiens, UniProt O43614); construct: expressed in transfected cells; host or cells: Chinese hamster ovary (CHO) cells, kept under G418 selection; assay: IPOne (IP-One) orexin receptor agonist assay in CHO cells expressing human OX2R; type: cell-based; settings: human OX2R; percentage of sample raw value/mean max effect (reference compound at 1 uM with 100% activity)
The reader will find reported % max agonist effect (Emax) values listed item by item below.
ATTRIBUTE MEASURED: % max agonist effect (Emax)

In [3]: df
Out[3]:
                                    compound  value_reported
 0  C[C@@H]1C[C@H](NS(C)(=O)=O)[C@H](CO[C@H]2CC[C@@H](c3cccc(F)c3)CC2)N1c1[nH]ccc(=O)c1F [Example 164]           98.6%
 1  CS(=O)(=O)N[C@H]1CCN(c2cnccc2OCc2ccccc2)[C@H]1CO[C@H]1CC[C@@H](c2ccccc2)CC1 [Example 123]           97.6%
 2  CS(=O)(=O)N[C@H]1CCN(c2cc(OC(F)F)c(F)cn2)[C@H]1CO[C@H]1CC[C@@H](c2ccccc2)CC1 [Example 140]           98.8%
 3  CS(=O)(=O)N[C@H]1CCN(c2ncc(F)cc2F)[C@H]1CO[C@H]1CC[C@@H](c2ccccc2)CC1 [Example 63]          101.1%
 4  Cc1ncc(N2CC[C@H](NS(C)(=O)=O)[C@@H]2CO[C@H]2CC[C@@H](c3ccccc3)CC2)n1C [Example 32]          100.2%
 5  CS(=O)(=O)N[C@H]1CCN(c2ccon2)[C@H]1CO[C@H]1CC[C@@H](c2ccccc2)CC1 [Example 17]          100.4%
 6  Cn1ccc(=O)cc1N1CC[C@H](NS(C)(=O)=O)[C@@H]1CO[C@H]1CC[C@@H](c2ccccc2)CC1 [Example 87]          102.3%
 7  CS(=O)(=O)N[C@H]1CCN(c2ccc[n+]([O-])c2)[C@H]1CO[C@H]1CC[C@@H](c2ccccc2)CC1 [Example 134]          101.7%
 8  CS(=O)(=O)N[C@H]1CCN(c2ccncc2CO)[C@H]1CO[C@H]1CC[C@@H](c2ccccc2)CC1 [Example 56]           61.6%
 9  CS(=O)(=O)N[C@H]1CCN(c2cnc(C3CC3)cn2)[C@H]1CO[C@H]1CC[C@@H](c2ccccc2)CC1 [Example 66]           99.2%
10  Cc1ncsc1N1CC[C@H](NS(C)(=O)=O)[C@@H]1CO[C@H]1CC[C@@H](c2ccccc2)CC1 [Example 83]           94.8%
11  Cn1cnc(N2CC[C@H](NS(C)(=O)=O)[C@@H]2CO[C@H]2CC[C@@H](c3ccccc3)CC2)n1 [Example 14]           87.9%
12  CS(=O)(=O)N[C@H]1CCN(c2cncc3ccccc23)[C@H]1CO[C@H]1CC[C@@H](c2ccccc2)CC1 (relative stereo) [Example 4]           97.3%
13  Cc1nccc(N2CC[C@H](NS(C)(=O)=O)[C@@H]2CO[C@H]2CC[C@@H](c3ccccc3)CC2)n1 [Example 48]           77.3%
14  CS(=O)(=O)N[C@H]1CCN(c2cc(O)ccn2)[C@H]1CO[C@H]1CC[C@@H](c2ccccc2)CC1 [Example 75]          100.4%
15  CS(=O)(=O)N[C@H]1CCN(c2occc2C#N)[C@H]1CO[C@H]1CC[C@@H](c2ccccc2)CC1 [Example 39]           98.4%
16  CS(=O)(=O)N[C@H]1CCN(c2cnc3ccoc3c2)[C@H]1CO[C@H]1CC[C@@H](c2ccccc2)CC1 [Example 91]           99.0%
17  CS(=O)(=O)N[C@H]1CCN(c2nc(Br)cs2)[C@H]1CO[C@H]1CC[C@@H](c2ccccc2)CC1 [Example 108]           97.4%
18  Cn1cc(N2CC[C@H](NS(C)(=O)=O)[C@@H]2CO[C@H]2CC[C@@H](c3ccccc3)CC2)cn1 [Example 40]           98.8%
19  CS(=O)(=O)N[C@H]1CCN(c2ccc(CO)nc2)[C@H]1CO[C@H]1CC[C@@H](c2ccccc2)CC1 [Example 71]          101.1%
20  CC(C)[C@H]1CC[C@@H](OC[C@H]2[C@@H](NS(C)(=O)=O)CCN2c2nccc(O)c2F)CC1 [Example 162]           98.5%
21  CS(=O)(=O)N[C@H]1CCN(c2ccns2)[C@H]1CO[C@H]1CC[C@@H](c2ccccc2)CC1 [Example 18]           87.4%
22  CS(=O)(=O)N[C@H]1CCN(c2ccc(=O)n(C(F)F)c2)[C@H]1CO[C@H]1CC[C@@H](c2ccccc2)CC1 [Example 23]           81.2%
23  CS(=O)(=O)N[C@H]1CCN(c2ncns2)[C@H]1CO[C@H]1CC[C@@H](c2ccccc2)CC1 [Example 33]          101.0%
24  Cc1nnc(-c2ccc(N3CC[C@H](NS(C)(=O)=O)[C@@H]3CO[C@H]3CC[C@@H](c4ccccc4)CC3)cc2)o1 (relative stereo) [Example 12]           68.8%
25  C[C@@H]1C[C@H](NS(=O)(=O)N(C)C)[C@H](CO[C@H]2CC[C@@H](c3cccc(F)c3)CC2)N1c1cc(O)ccn1 [Example 157]          100.2%
26  COc1cccc(N2CC[C@H](NS(C)(=O)=O)[C@@H]2CO[C@H]2CC[C@@H](c3ccccc3)CC2)n1 [Example 152]           97.6%
27  COc1ccc(N2CC[C@H](NS(C)(=O)=O)[C@@H]2CO[C@H]2CC[C@@H](c3ccccc3)CC2)cc1 (relative stereo) [Example 6]           25.1%
